Data credit: the supplement of paper PMC7765376

# System: PEO-1
# procedure details: Excess HSA synergy score (sum over dose matrix of excess over highest single agent) (score (summed % response)); higher = less synergy / more antagonism (negative = synergy)
# experimental conditions: 72 h; read-out: viability/apoptosis luminescence (CellTiter-Glo or Caspase3-Glo / not stated per table); matrix design: 6x6, 5-fold dilutions (primary screen)
Counter-ions that a name gives are not always drawn. In all, about 1,500 compounds were measured (“Excess HSA synergy score (sum over dose matrix of excess over highest single agent)”: median about 43, lowest 2% from about -900 on). Many of the other results were omitted from the sample, so the lowest values are more common in it than they were.
assay metric: Excess HSA synergy score
// return a plain number; no unit text

Input: Which measured Excess HSA synergy score value corresponds to Nc1ncn([C@H]2C[C@H](O)[C@@H](CO)O2)c(=O)n1 [Decitabine] + CC[C@H](NC(=O)[C@H](C)NC)C(=O)N1C[C@@H](O)C[C@H]1Cc1c(-c2[nH]c3cc(F)ccc3c2C[C@@H]2C[C@H](O)CN2C(=O)[C@H](CC)NC(=O)[C@H](C)NC)[nH]c2cc(F)ccc12 ?
Output: -104

Input: Which measured Excess HSA synergy score value corresponds to CCN1CCN(c2ccc(Nc3cc(N(C)C(=O)Nc4c(Cl)c(OC)cc(OC)c4Cl)ncn3)cc2)CC1 [Infigratinib] + CC[C@H](NC(=O)[C@H](C)NC)C(=O)N1C[C@@H](O)C[C@H]1Cc1c(-c2[nH]c3cc(F)ccc3c2C[C@@H]2C[C@H](O)CN2C(=O)[C@H](CC)NC(=O)[C@H](C)NC)[nH]c2cc(F)ccc12 ?
Output: -48.8

Input: Which measured Excess HSA synergy score value corresponds to Cc1cc(O)c2c3c4c(cc(O)c13)C(C)(C)C(=O)c1c(O)cc(O)c(c1-4)C2=O [Resistomycin] + CC[C@H](NC(=O)[C@H](C)NC)C(=O)N1C[C@@H](O)C[C@H]1Cc1c(-c2[nH]c3cc(F)ccc3c2C[C@@H]2C[C@H](O)CN2C(=O)[C@H](CC)NC(=O)[C@H](C)NC)[nH]c2cc(F)ccc12 ?
Output: -31.1

Input: Which measured Excess HSA synergy score value corresponds to COc1cc([C@@H]2c3cc4c(cc3[C@@H](O[C@@H]3O[C@@H]5CO[C@@H](C)O[C@H]5[C@H](O)[C@H]3O)[C@H]3COC(=O)[C@H]23)OCO4)cc(OC)c1O [Etoposide] + CC[C@H](NC(=O)[C@H](C)NC)C(=O)N1C[C@@H](O)C[C@H]1Cc1c(-c2[nH]c3cc(F)ccc3c2C[C@@H]2C[C@H](O)CN2C(=O)[C@H](CC)NC(=O)[C@H](C)NC)[nH]c2cc(F)ccc12 ?
Output: -89.6

Input: Which measured Excess HSA synergy score value corresponds to CC(C)(O)CC[C@@H](O)[C@](C)(O)[C@H]1CC[C@@]2(O)C3=CC(=O)[C@@H]4C[C@@H](O)[C@@H](O)C[C@]4(C)[C@H]3CC[C@]12C [20-hydroxyecdysone] + CC[C@H](NC(=O)[C@H](C)NC)C(=O)N1C[C@@H](O)C[C@H]1Cc1c(-c2[nH]c3cc(F)ccc3c2C[C@@H]2C[C@H](O)CN2C(=O)[C@H](CC)NC(=O)[C@H](C)NC)[nH]c2cc(F)ccc12 ?
Output: 229

Input: Which measured Excess HSA synergy score value corresponds to C=CC(=O)Nc1cc2c(Nc3ccc(F)c(Cl)c3)ncnc2cc1C#CC(C)(C)N1CCN(C)CC1 + CC[C@H](NC(=O)[C@H](C)NC)C(=O)N1C[C@@H](O)C[C@H]1Cc1c(-c2[nH]c3cc(F)ccc3c2C[C@@H]2C[C@H](O)CN2C(=O)[C@H](CC)NC(=O)[C@H](C)NC)[nH]c2cc(F)ccc12 ?
Output: 44.3

Input: Which measured Excess HSA synergy score value corresponds to CC[C@@]1(O)C(=O)OCc2c1cc1n(c2=O)Cc2cc3cc(O)ccc3nc2-1 [10-hydroxycamptothecin] + CC[C@H](NC(=O)[C@H](C)NC)C(=O)N1C[C@@H](O)C[C@H]1Cc1c(-c2[nH]c3cc(F)ccc3c2C[C@@H]2C[C@H](O)CN2C(=O)[C@H](CC)NC(=O)[C@H](C)NC)[nH]c2cc(F)ccc12 ?
Output: -38.5

Input: Which measured Excess HSA synergy score value corresponds to CCc1c2c(nc3ccc(O)cc13)-c1cc3c(c(=O)n1C2)COC(=O)[C@]3(O)CC + CC[C@H](NC(=O)[C@H](C)NC)C(=O)N1C[C@@H](O)C[C@H]1Cc1c(-c2[nH]c3cc(F)ccc3c2C[C@@H]2C[C@H](O)CN2C(=O)[C@H](CC)NC(=O)[C@H](C)NC)[nH]c2cc(F)ccc12 ?
Output: 0.514

Input: Which measured Excess HSA synergy score value corresponds to CCS(=O)(=O)N1CC(CC#N)(n2cc(-c3ncnc4[nH]ccc34)cn2)C1 [Baricitinib] + CC[C@H](NC(=O)[C@H](C)NC)C(=O)N1C[C@@H](O)C[C@H]1Cc1c(-c2[nH]c3cc(F)ccc3c2C[C@@H]2C[C@H](O)CN2C(=O)[C@H](CC)NC(=O)[C@H](C)NC)[nH]c2cc(F)ccc12 ?
Output: 48.3

Input: Which measured Excess HSA synergy score value corresponds to Nc1nc(F)nc2c1ncn2[C@@H]1O[C@H](CO)[C@@H](O)[C@H]1O [2-Fluoroadenosine] + CC[C@H](NC(=O)[C@H](C)NC)C(=O)N1C[C@@H](O)C[C@H]1Cc1c(-c2[nH]c3cc(F)ccc3c2C[C@@H]2C[C@H](O)CN2C(=O)[C@H](CC)NC(=O)[C@H](C)NC)[nH]c2cc(F)ccc12 ?
Output: 41.5

Input: Which measured Excess HSA synergy score value corresponds to CC(C)(C(=O)NCC(F)(F)C(F)(F)F)C(=O)N[C@@H]1C(=O)Nc2ccccc2-c2ccccc21 + CC[C@H](NC(=O)[C@H](C)NC)C(=O)N1C[C@@H](O)C[C@H]1Cc1c(-c2[nH]c3cc(F)ccc3c2C[C@@H]2C[C@H](O)CN2C(=O)[C@H](CC)NC(=O)[C@H](C)NC)[nH]c2cc(F)ccc12 ?
Output: -141

Input: Which measured Excess HSA synergy score value corresponds to CC[C@@]1(O)C(=O)OCc2c1cc1n(c2=O)Cc2cc3c(CN(C)C)c(O)ccc3nc2-1 [Topotecan hydrochloride] + CC[C@H](NC(=O)[C@H](C)NC)C(=O)N1C[C@@H](O)C[C@H]1Cc1c(-c2[nH]c3cc(F)ccc3c2C[C@@H]2C[C@H](O)CN2C(=O)[C@H](CC)NC(=O)[C@H](C)NC)[nH]c2cc(F)ccc12 ?
Output: -166

====

# Test system: PEO-1
# procedure details: Excess HSA synergy score (sum over dose matrix of excess over highest single agent) (score (summed % response)); higher = less synergy / more antagonism (negative = synergy)
# experimental conditions: 72 h; read-out: viability/apoptosis luminescence (CellTiter-Glo or Caspase3-Glo / not stated per table); matrix design: 6x6, 5-fold dilutions (primary screen)
Over roughly 1,500 compounds, “Excess HSA synergy score (sum over dose matrix of excess over highest single agent)” has its median near 43; the lowest 2% begin near -900. The list comes from a sample in which the lowest values are over-represented; it also holds close analogues and randomly drawn compounds.
assay metric: Excess HSA synergy score
// return a plain number; no unit text

Input: Form entry - test system: PEO-1; read-out: Excess HSA synergy score; compound: COc1ccc2c(OCc3nnc4ccc(-c5ccccc5)nn34)ccnc2c1 + CC[C@H](NC(=O)[C@H](C)NC)C(=O)N1C[C@@H](O)C[C@H]1Cc1c(-c2[nH]c3cc(F)ccc3c2C[C@@H]2C[C@H](O)CN2C(=O)[C@H](CC)NC(=O)[C@H](C)NC)[nH]c2cc(F)ccc12 [Birinapant]
Output: -55.6

Input: Form entry - test system: PEO-1; read-out: Excess HSA synergy score; compound: Clc1ccc(-c2nc3sccn3c2/C=N/OCc2ccc(Cl)c(Cl)c2)cc1 + CC[C@H](NC(=O)[C@H](C)NC)C(=O)N1C[C@@H](O)C[C@H]1Cc1c(-c2[nH]c3cc(F)ccc3c2C[C@@H]2C[C@H](O)CN2C(=O)[C@H](CC)NC(=O)[C@H](C)NC)[nH]c2cc(F)ccc12 [Birinapant]
Output: 56.2

Input: Form entry - test system: PEO-1; read-out: Excess HSA synergy score; compound: Cc1ccc(NC(=O)c2cccc(C(C)(C)C#N)c2)cc1Nc1ccc2ncn(C)c(=O)c2c1 + CC[C@H](NC(=O)[C@H](C)NC)C(=O)N1C[C@@H](O)C[C@H]1Cc1c(-c2[nH]c3cc(F)ccc3c2C[C@@H]2C[C@H](O)CN2C(=O)[C@H](CC)NC(=O)[C@H](C)NC)[nH]c2cc(F)ccc12 [Birinapant]
Output: 31.8

Input: Form entry - test system: PEO-1; read-out: Excess HSA synergy score; compound: COc1ccc(-c2c(-c3ccc(O)cc3O)n[nH]c2C)cc1 + CC[C@H](NC(=O)[C@H](C)NC)C(=O)N1C[C@@H](O)C[C@H]1Cc1c(-c2[nH]c3cc(F)ccc3c2C[C@@H]2C[C@H](O)CN2C(=O)[C@H](CC)NC(=O)[C@H](C)NC)[nH]c2cc(F)ccc12 [Birinapant]
Output: 59.5
